- ASSAY_PROTOCOL: Dose-escalation study of Compound 1 pharmacokinetics in subjects with advanced malignancies (tablets of Formulations 1 and/or 3, fasted; food effect cohort)
- Format: in vivo, human
- RUN_CONDITIONS: human, plasma, oral, 100 mg, 100 mg BID, steady state, mean ± SD; read-out: AUC0-t
MEASURED_PARAMETER: AUC(0-t)
In your response, the unit should come after the numeric value.

Value lookup for AUC(0-t); key = `NS(=O)(=O)NCCNc1nonc1C(=NO)Nc1ccc(F)c(Br)c1`
5.32 µM·h

---

- ASSAY_PROTOCOL: Pharmacokinetics of Compound 1 in combination with MK-3475 in subjects with various cancers
- Assay type: in vivo, human
- RUN_CONDITIONS: human, plasma, oral, 50 mg, by dose, 50 mg, first dose, mean ± SD; read-out: AUC0-t
MEASURED_PARAMETER: AUC(0-t)
In your response, the unit should come after the numeric value.

Value lookup for AUC(0-t); key = NS(=O)(=O)NCCNc1nonc1C(=NO)Nc1ccc(F)c(Br)c1 [Compound 1]
1.43 µM·h

---

- ASSAY_PROTOCOL: Pharmacokinetics of Compound 1 in combination with MK-3475 in subjects with various cancers
- Assay type: in vivo, human
- RUN_CONDITIONS: human, plasma, oral, 100 mg BID, Diagnosis NSCLC PD-L1 Low/NE, steady state C1D8, geometric mean; read-out: AUC0-12 h (converted)
MEASURED_PARAMETER: AUC(0-t) (µM·h)
Give just the number in µM·h; leave the unit off.

Value lookup for AUC(0-t); key = `NS(=O)(=O)NCCNc1nonc1C(=NO)Nc1ccc(F)c(Br)c1`
4.3

---

- ASSAY_PROTOCOL: Pharmacokinetics of Compound 1 in combination with MK-3475 in subjects with various cancers
- Format: in vivo, human
- RUN_CONDITIONS: human, plasma, oral, 100 mg BID, Diagnosis NSCLC PD-L1 Low/NE, steady state C1D8, mean ± SD
MEASURED_PARAMETER: Cmax (nM)
Give just the number in nM; leave the unit off.

Value lookup for Cmax; key = `NS(=O)(=O)NCCNc1nonc1C(=NO)Nc1ccc(F)c(Br)c1`
879

---

- ASSAY_PROTOCOL: Pharmacokinetics of Compound 1 in combination with MK-3475 in subjects with various cancers
- Assay type: in vivo, human
- RUN_CONDITIONS: human, plasma, oral, 100 mg, Cohort 3, 100 mg, first dose, geometric mean
MEASURED_PARAMETER: Cmax (nM)
Give just the number in nM; leave the unit off.

Value lookup for Cmax; key = NS(=O)(=O)NCCNc1nonc1C(=NO)Nc1ccc(F)c(Br)c1 [Compound 1]
521

---

- ASSAY_PROTOCOL: Pharmacokinetics of Compound 1 in combination with MK-3475 in subjects with various cancers
- Format: in vivo, human
- RUN_CONDITIONS: human, plasma, oral, 100 mg BID, Diagnosis GU, steady state C1D8, geometric mean; read-out: AUC0-12 h (converted)
- Method: The subjects were not limited to a specific cancers and study include subjects with various cancers. […] One treatment cycle consisted of 21 days. […] The RP2D was selected from the evaluated safety expansions. […] Pharmacokinetic samples were obtained at the visits of Cycle 1 Day 1, Cycle 1 Day 8 and Cycle 2 Day 1. […] The exact date and time of the PK blood draws were recorded in the eCRF along with the date and time of the last dose of study drug and details of the last meal preceding the blood draw. […]
MEASURED_PARAMETER: AUC(0-t) (µM·h)
Give just the number in µM·h; leave the unit off.

Value lookup for AUC(0-t); key = `NS(=O)(=O)NCCNc1nonc1C(=NO)Nc1ccc(F)c(Br)c1`
4.41
